- Tested on: intestinal alkaline phosphatase [Mus musculus]
- experimental protocol: mouse intestinal phosphatase enzyme activation – biochemical, luminescence, single concentration, confirmation (AID 434970)
- reported conditions: purified mouse IAP, CDP-Star luminescence, 30 min, at 10 µM; measured here: IAP activation factor, stronger effect = higher value
Hit rate of the full screen: of about 11,000 compounds, about 310 (2.8%) were called active. The sample as a whole holds a higher share of actives than the screen did.
Answer not satisfied if activation factor is under 2, and satisfied if it is 2 or more.

## Input Is activation factor at least 2? Consider O=C(Nc1cccc(F)c1)C1CC(=O)N(c2ccc(Cl)cc2)C1 (stereo unspecified)
## Output not satisfied

## Input Tell me whether activation factor is at least 2 here: "CCOc1ccc(NC(=O)Nc2cc(OCC(F)(F)F)cc(OCC(F)(F)F)c2)cc1"
## Output satisfied

## Input Answer whether activation factor of "N#Cc1ccc(N2CCN(c3ccc(F)cc3)CC2)cc1" is greater than or equal to 2.
## Output not satisfied

## Input Entry "CC(C)(C)c1ccc(NC(=O)Nc2ccc(F)cc2)cc1" : is its activation factor no less than 2?
## Output not satisfied

## Input State whether the measured activation factor reaches 2, counting equality as reaching it, for "CCOC(=O)c1[nH]c(C)c(CN(CCc2ccccc2)C(=O)CCC(=O)O)c1C"
## Output not satisfied

## Input Does "O=C(Nc1ccc(F)cc1)Nc1cccc(Br)c1" have a reported activation factor of at least 2?
## Output not satisfied

## Input Decide: is the reported value of activation factor for COCCC(=O)N(Cc1ccc2c(c1)OCO2)C(C(=O)NC1CCCCC1)c1ccncc1 (stereo unspecified) equal to or greater than 2?
## Output not satisfied

## Input Please check the record "N#Cc1nc(COc2ccc(Cl)cc2)oc1N1CCCCCC1" and state if its activation factor is at or above 2.
## Output not satisfied

## Input API: above_or_equal(metric=activation factor, cutoff=2) for item "O=C(Nc1ccc(F)cc1)Nc1cc(OCC(F)(F)F)cc(OCC(F)(F)F)c1"
## Output satisfied

## Input Tell me whether activation factor is at least 2 here: "COc1ccc(Nc2nc(N)nc(CSc3nccc(C)n3)n2)cc1"
## Output not satisfied

====

- Tested on: intestinal alkaline phosphatase [Mus musculus]
- experimental protocol: mouse intestinal phosphatase enzyme activation – biochemical, luminescence, single concentration, confirmation (AID 434970)
- reported conditions: purified mouse IAP, CDP-Star luminescence, 30 min, at 10 µM; measured here: IAP activation factor, stronger effect = higher value
Screen size: about 11,000 compounds; about 310 (2.8%) were called active. The entries come from a sample that favours actives as a whole.
measurement type: activation factor
Answer field: number only, no words.

## Input Tell me its activation factor on intestinal alkaline phosphatase [Mus musculus]: "CC(=O)c1ccc(NC(=O)N2CCN(c3cccc(Cl)c3)CC2)cc1"
## Output 1.08

## Input Give the observed activation factor of "O=C(NCc1cccc2ccccc12)Nc1ccccc1" for intestinal alkaline phosphatase [Mus musculus].
## Output 1.74

## Input Report value: activation factor, system: intestinal alkaline phosphatase [Mus musculus], molecule: "O=C(Cc1ccccc1)NNC(=O)Nc1cccc(Cl)c1"
## Output 0.911

## Input Jot down activation factor (intestinal alkaline phosphatase [Mus musculus]) of "Cc1cccc(CN2CCC(CNC(=O)CCNC(=O)Cn3ccc4ccccc4c3=O)CC2)c1" .
## Output 0.974

## Input Report measured activation factor on intestinal alkaline phosphatase [Mus musculus]; entry: "Cc1cc(C)cc(C(=O)N(NC(=O)Nc2ccc(Cl)cc2)C(C)(C)C)c1"
## Output 4.22

## Input Fill in: activation factor on intestinal alkaline phosphatase [Mus musculus], entry "O=C(Nc1ccc(Cl)cc1)Nc1ccc(-c2cnco2)cc1"
## Output 1.34

## Input Under intestinal alkaline phosphatase [Mus musculus]: report activation factor of "O=C(Nc1ccc(C(=O)N2CCCCC2)cc1)Nc1cccc(Cl)c1" .
## Output 2.39

## Input Give activation factor only, for Cn1c(=O)c2c(nc(NC3CCCCC3)n2CC(O)COc2ccccc2)n(C)c1=O (stereo not drawn) , using intestinal alkaline phosphatase [Mus musculus] data.
## Output 1.01

## Input GET activation factor | system: intestinal alkaline phosphatase [Mus musculus] | item: "CN(C)S(=O)(=O)Oc1cccc(C(=O)Nc2ccc(Cl)c(Cl)c2)c1"
## Output 0.948

## Input Provide measured activation factor on intestinal alkaline phosphatase [Mus musculus] for "O=C(CCN1C(=O)c2ccccc2C1=O)NC(=S)Nc1cccc(Cl)c1" please.
## Output 0.956

## Input Recall the reported activation factor of CC1CN(c2nc3c(c(=O)n(Cc4ccc(Cl)c(Cl)c4)c(=O)n3C)n2C)CC(C)O1 (stereo not drawn) on intestinal alkaline phosphatase [Mus musculus] and write it down.
## Output 1.01

## Input Give intestinal alkaline phosphatase [Mus musculus] activation factor for the following molecule: "O=C(Nc1ccc(Cl)cc1)Nc1ccc(N2CCOCC2)cc1"
## Output 1.17

## Input With intestinal alkaline phosphatase [Mus musculus] as the test system, provide measured activation factor for this molecule: "O=C(CSc1nnc(Cn2nnc3ccccc32)o1)Nc1ccc(Cl)cc1"
## Output 0.985

## Input Look up and report activation factor, with intestinal alkaline phosphatase [Mus musculus] as system, for "COc1ccccc1C(=O)N1CCN=C1c1ccccc1"
## Output 0.974

## Input Fill in: activation factor on intestinal alkaline phosphatase [Mus musculus], entry "Cc1ccc(NC(=O)NCC2CCN(Cc3cccc(Cl)c3)CC2)c(Cl)c1"
## Output 2.2

## Input Jot down activation factor (intestinal alkaline phosphatase [Mus musculus]) of "CCOC(=O)c1cccc(NC(=O)CCS(=O)(=O)c2cccs2)c1" .
## Output 1.01

## Input Give activation factor only, for "O=C(Cc1cccc2ccccc12)NNC(=O)Nc1cccc(Cl)c1" , using intestinal alkaline phosphatase [Mus musculus] data.
## Output 0.964

## Input Recall the reported activation factor of "CCOC(=O)C1CCN(CCC(=O)Nc2ccccc2Cl)CC1" when tested on intestinal alkaline phosphatase [Mus musculus].
## Output 0.996

## Input Look up and report measured activation factor (intestinal alkaline phosphatase [Mus musculus]) for the following molecule: "O=C(Nc1ccccc1)Nc1cccc(Cl)c1"
## Output 2.11

## Input Answer with activation factor of "CNC(=O)Nc1ccc(Cl)cc1" measured for intestinal alkaline phosphatase [Mus musculus].
## Output 1.26

## Input # return activation factor of "Cn1c(=O)c2c(nc(NC3CCCCC3)n2CC(=O)C23CC4CC(CC(C4)C2)C3)n(C)c1=O" (system: intestinal alkaline phosphatase [Mus musculus])
## Output 5.65

## Input Please report the measured activation factor for COC(=O)c1ccc(NC(=S)NC2CC3CCC2C3)cc1 (stereo not drawn) tested on intestinal alkaline phosphatase [Mus musculus].
## Output 1.56

## Input Please look at "O=C(NCc1csc2ccccc12)Nc1cc(Cl)cc(Cl)c1" and tell me its recorded activation factor on intestinal alkaline phosphatase [Mus musculus].
## Output 2.45

====

- Test system: intestinal alkaline phosphatase [Mus musculus]
- experimental protocol: mouse intestinal phosphatase enzyme activation – biochemical, luminescence, single concentration, confirmation (AID 434970)
- reported conditions: purified mouse IAP, CDP-Star luminescence, 30 min, at 10 µM; stronger effect = lower value
Hit rate of the full screen: of about 11,000 compounds, about 310 (2.8%) were called active. The sample as a whole holds a higher share of actives than the screen did.
measurement type: activity change, negative = activation (%)
Your answer should be a plain number; it is taken to be in %.

## Input Recall the reported activity change, negative = activation of "COCCCNC(=O)C[C@H]1C[C@H](C(=O)N2CCCCC2)[C@@]2(CCc3ccccc3)c3[nH]c4ccc(Cl)cc4c3CCN2C1=O" when tested on intestinal alkaline phosphatase [Mus musculus].
## Output -19.7

## Input Tell me activity change, negative = activation of CCCCCCCCCCCC(=O)NC(C(=O)OCC)C(O)c1cccc([N+](=O)[O-])c1 (stereo not given) when tested on intestinal alkaline phosphatase [Mus musculus].
## Output -2.65

## Input Report activity change, negative = activation under test system intestinal alkaline phosphatase [Mus musculus] for "COc1cccc(-c2nn(-c3ccccc3)cc2C(=O)NCC(=O)O)c1" .
## Output -8.2

## Input Report activity change, negative = activation from intestinal alkaline phosphatase [Mus musculus] testing of "Cc1nn(Cc2c(Cl)cccc2Cl)c(C)c1NC(=O)c1cn(-c2ccccc2)nc1-c1ccccc1"
## Output -73.8

## Input Please report activity change, negative = activation with intestinal alkaline phosphatase [Mus musculus] for item "S=c1[nH]nc(CSc2nc3ccccc3s2)n1Cc1ccccc1" .
## Output -10.1

====

- Test system: intestinal alkaline phosphatase [Mus musculus]
- experimental protocol: mouse intestinal phosphatase enzyme activation – biochemical, luminescence, single concentration, confirmation (AID 434970)
- reported conditions: purified mouse IAP, CDP-Star luminescence, 30 min, at 10 µM; measured here: IAP activation factor, stronger effect = higher value
The whole screen tested about 11,000 compounds, of which about 310 (2.8%) were called active. For the sample, actives were picked, then their nearest neighbours and some compounds at random.
measurement type: activation factor
Answer with a number only.

## Input In one line, give reported activation factor of the entry "O=C(O)CCSc1nc(C(F)(F)F)cc(=O)n1-c1ccccc1" .
## Output 1.01

## Input Retrieve activation factor measured for "CC(=O)Nc1ccc(S(=O)(=O)Nc2cccc(NC(=O)C(C)(C)C)c2)cc1" and print it.
## Output 1.12

## Input Report activation factor for "CCCN(/C=N/c1sc2c(c1C#N)CCCCC2)CCC"
## Output 0.953

## Input Return the recorded activation factor value; entry: O=C1CC(N2CCN(c3ccccc3F)CC2)C(=O)N1c1ccc2c(c1)OCCO2 (stereo not drawn)
## Output 0.964

## Input For the molecule CC(NC(=O)Nc1ccc(Cl)cc1)C(c1cccs1)N1CCOCC1 (stereo not drawn) , give its measured activation factor value.
## Output 1.71

## Input Please give the documented activation factor of "CSc1ccccc1NC(=O)Nc1ccc(F)c(Cl)c1"
## Output 1.83

## Input Find the measured activation factor of "COc1ccc(Cl)cc1N1C(=O)[C@@H]2C(c3cccc(OC)c3OC)=NO[C@@H]2C1=O" and report it.
## Output 1

## Input Indicate its recorded activation factor; the molecule in question is O=C(Nc1ccc(F)c(Cl)c1)C1CC(=O)n2c(nc3ccccc32)N1 (stereo not drawn)
## Output 2.42

## Input Query activation factor for "Cc1cc(NCCCn2ccnc2)n2c(nc3ccccc32)c1C#N"
## Output 1.02

## Input Specify activation factor for "O=C(N1CCOCC1)C1(c2ccccc2)CCCCC1" and stop.
## Output 0.901

## Input Write down activation factor measured for item "COc1ccc(CCNC(=O)c2cc(-c3cc(Cl)cc(Cl)c3)oc2C)cc1"
## Output 2.07

## Input Tell me activation factor reported for "S=C(NCc1ccc(Cl)cc1Cl)Nc1ccccc1"
## Output 1.41

## Input Let me know recorded activation factor for COc1ccc(C(=O)OC(C(=O)c2ccccc2)c2ccccc2)cc1 (stereo not drawn) , thanks.
## Output 0.982

## Input Entry "S=C(NCc1ccc(Cl)cc1Cl)NC1CCCCC1" needs its activation factor filled in; supply it.
## Output 1.93

## Input Give the reported activation factor for this molecule. "O=C(Nc1ccc(Cl)cc1)N1CCC(c2nc(-c3ccccc3Cl)no2)CC1"
## Output 1.1

## Input Specify activation factor for "COC(=O)c1c(N)n(CCCN2CCOCC2)c2nc3ccccc3nc12" and stop.
## Output 0.983

## Input Specify activation factor for "CC1(C)Cc2noc(N)c2C(C)(C)N1OC(=O)c1cccs1" and stop.
## Output 1.04

## Input Give reported activation factor value for C=C(C)c1cccc(C(C)(C)NC(=O)NC(c2ccccc2)c2ccc(OC)cc2)c1 (stereo not drawn)
## Output 4.59

## Input Report measured activation factor; entry is "S=C(NCc1cccc(Cl)c1)NC1CCCCC1"
## Output 1.14

## Input Input "Cc1ccc(NC(=O)Cn2cnc(C(=O)Nc3ccc(C)c(C)c3)n2)cc1C" , output reported activation factor.
## Output 1.05

## Input Dear colleague, please send me the reported activation factor for C=C(C)c1cccc(C(C)(C)NC(=O)NCC2COCCO2)c1 (stereo not drawn) when you can.
## Output 1.09

## Input Tell me activation factor reported for O=C1CC(c2ccco2)Sc2nc3ccccc3n21 (stereo not drawn)
## Output 0.801

## Input Please list activation factor recorded for the molecule "CC(C)CCNC(=O)NC(=O)CSc1nnc(COc2ccccc2Cl)o1"
## Output 1.04

The origin of these recorded values is PubChem BioAssay AID434970.
